# System: human colon carcinoma cell line HCT116
# RUN DESCRIPTION: Caspase cascade activation in HCT116 cells
# Type: cell-based
# CONDITION PARAMETERS: Homo sapiens, HCT-116, 48 h, read-out: Caspase activation Potency EC50 HCT116 (48 h)
Counter-ions that a name gives are not always drawn.
Reported EC50 values follow for various compounds

Before answering, review these 2 worked examples.
• COc1cc(N=[N+]=[N-])cc(Nc2ncnc3ccsc23)c1 = 0.144 µM
• COc1cc(Nc2ncnc3ccsc23)cc(OC)c1 [Example 12, hydrochloride] = 0.279 µM

# next compound below
Query block: Consider the compound shown here: `COc1ccc(Cl)cc1Nc1ncnc2ccsc12` What is its recorded EC50?
Result block: > 10 µM

* * *

# Tested on: human breast cancer cell line SKBR3
# RUN DESCRIPTION: Inhibition of cell proliferation (GI50) in SKBR3 cells
# Format: cell-based
# CONDITION PARAMETERS: SK-BR-3, Table IV, read-out: GI50 in Multi-Cancer Cells SKBR3
Counter-ions that a name gives are not always drawn.
MEASURED ATTRIBUTE: GI50 (nM)

* COc1cc(Nc2ncnc3ccsc23)cc(-n2cnnn2)c1 | 600

[1] COc1cc(Nc2ncnc3ccsc23)cc(N(C)C)c1
[2] COc1ccc(OC)c(Nc2ncnc3ccsc23)c1
Query block: When their GI50 values are compared, which is larger, 1 or 2 ? Answer with the label corresponding to your selection.
Result block: 2
(2: 500 nM, 1: 100 nM)

[P] COc1cc(Nc2ncnc3ccsc23)cc(OC)c1 [Example 12, hydrochloride]
[Q] COc1cc(N=[N+]=[N-])cc(Nc2ncnc3ccsc23)c1
Query block: Lab note: check whether P or Q has the lower measured GI50. Answer with the label corresponding to your selection.
Result block: P

* * *

# Test system: human breast cancer cell line T-47D
# RUN DESCRIPTION: Caspase cascade activation (DEVD-R110 fluorogenic substrate) in T-47D cells
# Format: cell-based
# CONDITION PARAMETERS: Homo sapiens, T47D, 24 h, T47D cells, 24 h; read-out: Caspase activation Potency EC50 T47D (24 h)
Structures can show the parent of a compound that is named as a salt.
MEASURED ATTRIBUTE: EC50 (nM)

[P] COc1ccc(OC)c(Nc2ncnc3sc(C)cc23)c1 [Example 28, hydrochloride]
[Q] COc1ccc(OC)c(Nc2ncnc3ccsc23)c1
Query block: When their EC50 values are compared, which is larger, P or Q ? Answer with the label corresponding to your selection.
Result block: P
(P: 422 nM, Q: 61 nM)

* * *

# Test system: human hepatocellular carcinoma cell line SNU398
# RUN DESCRIPTION: Caspase cascade activation in SNU398 cells
# Type: cell-based
# CONDITION PARAMETERS: 48 h, hydrochloride, read-out: Caspase activation Potency EC50 SNU398 (48 h)
Counter-ions that a name gives are not always drawn.
MEASURED ATTRIBUTE: pEC50
Units for pEC50: none; it is -log10 of a concentration expressed in mol/L.

Query block: Consider the molecule shown here: COc1cc(Nc2ncnc3ccsc23)cc(N(C)C)c1 [Example 70, hydrochloride] What is its recorded pEC50?
Result block: 6.62

* * *

Reported pEC50 values follow for various compounds
# Test system: human colon carcinoma cell line HCT116
# RUN DESCRIPTION: Caspase cascade activation in HCT116 cells
# Assay type: cell-based
# CONDITION PARAMETERS: Homo sapiens, HCT-116, 48 h, read-out: Caspase activation Potency EC50 HCT116 (48 h)
pEC50: −log10 of the molar value. Counter-ions that a name gives are not always drawn.

Before answering, review these 8 worked examples.
• COc1cc(N)cc(Nc2ncnc3ccsc23)c1 = < 5.00
• COc1ccc(Nc2nc(C)nc3scc(C)c23)cc1 [Example 13, hydrochloride] = < 5.00
• COc1cc(Nc2ncnc3scc(C)c23)cc(OC)c1 = ≤ 5.00
• COc1ccc(OC)c(Nc2nc(C)nc3sccc23)c1 = 5.26
• COc1ccc(OC)c(Nc2ncnc3sc(-c4ccccc4)c(C)c23)c1 [Example 16, hydrochloride] = < 5.00
• COc1ccc(Nc2nc(C)nc3sccc23)cc1 = < 5.00
• COc1cc(Nc2nc(C)nc3ccsc23)cc(N(C)C)c1 = 5.90
• COc1ccc([N+](=O)[O-])cc1Nc1ncnc2ccsc12 = < 5.00

Query block: Consider the compound shown here: `COc1ccc(OC)c(Nc2ncnc3cc(-c4ccccc4)sc23)c1` What is its recorded pEC50?
Result block: 5.37

Query block: Also, COc1ccc(OC)c(Nc2ncnc3sc(C)cc23)c1 [Example 28, hydrochloride] please.
Result block: < 5.00

* * *

# Test system: human colon carcinoma cell line HCT116
# RUN DESCRIPTION: Caspase cascade activation in HCT116 cells
# Type: cell-based
# CONDITION PARAMETERS: Homo sapiens, HCT-116, 48 h, read-out: Caspase activation Potency EC50 HCT116 (48 h)
Where a name gives a salt, the structure may show the parent alone.
MEASURED ATTRIBUTE: EC50

Before answering, review these 3 worked examples.
* COc1ccc(OC)c(Nc2nc(C)nc3sc(C)c(C)c23)c1 [Example 29, hydrochloride] | > 10 µM
* COc1ccc([N+](=O)[O-])c(Nc2ncnc3ccsc23)c1 [Example 35] | > 10 µM
* COc1cc(Nc2ncnc3ccsc23)cc(OC)c1OC [Example 10, hydrochloride] | 5 µM

Query block: Notebook entry, human colon carcinoma cell line HCT116 assay: EC50 of COc1ccc(Nc2ncnc3scc(C)c23)cc1 [Example 23] = ?
Result block: > 10 µM

Query block: Also, COc1ccc(Nc2ncnc3ccsc23)cc1 [Example 19, hydrochloride] please.
Result block: > 10 µM

* * *

# Tested on: human colon carcinoma cell line HCT116
# RUN DESCRIPTION: Caspase cascade activation in HCT116 cells
# Format: cell-based
# CONDITION PARAMETERS: Homo sapiens, HCT-116, 48 h, read-out: Caspase activation Potency EC50 HCT116 (48 h)
pEC50: −log10 of the molar value. Where a name gives a salt, the structure may show the parent alone.
Reported pEC50 values follow for various compounds

• COc1cc(Nc2nc(C)nc3scc(C)c23)cc(OC)c1 = 5.43
• COc1ccc(OC)c(Nc2ncnc3scc(C)c23)c1 [Example 6, hydrochloride] = < 5.00
• COc1cc(Nc2ncnc3cc(Br)sc23)cc(N(C)C)c1 = 5.89

Query block: Notebook entry, human colon carcinoma cell line HCT116 assay: pEC50 of `COc1cc(Nc2ncnc3c(C)csc23)cc(OC)c1` = ?
Result block: < 5.00

Query block: Also, COc1ccc(Nc2ncnc3ccsc23)cc1OC [Example 14, hydrochloride] please.
Result block: < 5.00

Query block: Also, `COc1cccc(OC)c1Nc1ncnc2ccsc12` please.
Result block: < 5.00

Query block: Also, `COc1ccc(OC)c(Nc2nc(-c3ccccc3)nc3ccsc23)c1` please.
Result block: < 5.00

Query block: Also, `COc1ccc(C(=O)O)cc1Nc1ncnc2ccsc12` please.
Result block: < 5.00

Query block: Also, COc1ccc(OC)c(Nc2ncnc3cc(I)sc23)c1 [Example 17, hydrochloride] please.
Result block: 6.46

* * *

# Tested on: human breast cancer cell line T-47D
# RUN DESCRIPTION: Caspase cascade activation (DEVD-R110 fluorogenic substrate) in T-47D cells
# Format: cell-based
# CONDITION PARAMETERS: Homo sapiens, T47D, 24 h, T47D cells, 24 h; read-out: Caspase activation Potency EC50 T47D (24 h)
Structures can show the parent of a compound that is named as a salt.
MEASURED ATTRIBUTE: EC50 (nM)

[1] COc1cccc(Nc2ncnc3ccsc23)c1 [Example 11, hydrochloride]
[2] COc1ccc(OC)c(Nc2ncnc3cc(-c4ccccc4)sc23)c1
Query block: When their EC50 values are compared, which is larger, 1 or 2 ? Answer with the label corresponding to your selection.
Result block: 2

[A] COc1ccc(C)cc1Nc1ncnc2ccsc12
[B] COc1cc(Nc2ncnc3ccsc23)cc(OC)c1OC [Example 10, hydrochloride]
[C] COc1cc(Nc2ncnc3ccsc23)cc(OC)c1 [Example 12, hydrochloride]
Query block: // ranking: key=EC50, reverse=True Give your ranking as a list of the labels in the requested order.
Result block: A, B, C

* * *

# System: human sarcoma cell line MES-SA
# RUN DESCRIPTION: Inhibition of cell proliferation (GI50) in MES-SA cells
# Type: cell-based
# CONDITION PARAMETERS: Table IV, read-out: GI50 in Multi-Cancer Cells MES-SA
Structures can show the parent of a compound that is named as a salt.
MEASURED ATTRIBUTE: GI50 (nM)

Before answering, review these 2 worked examples.
- COc1ccc(OC)c(Nc2ncnc3ccsc23)c1: 5190
- COc1cc(Nc2nc(C)nc3ccsc23)cc(OC)c1: 788

[I] COc1cc(Nc2ncnc3ccsc23)cc(OC)c1 [Example 12, hydrochloride]
[II] COc1cc(Nc2ncnc3ccsc23)cc(N(C)C)c1
Query block: When their GI50 values are compared, which is larger, I or II ? Answer with the label corresponding to your selection.
Result block: II

[P] COc1cc(Nc2ncnc3ccsc23)cc(-n2cnnn2)c1
[Q] COc1cc(N=[N+]=[N-])cc(Nc2ncnc3ccsc23)c1
Query block: When their GI50 values are compared, which is larger, P or Q ? Answer with the label corresponding to your selection.
Result block: P
